# Target or system: HDAC2 (Homo sapiens, UniProt Q92769)
# Sequence (Q92769 whole entry): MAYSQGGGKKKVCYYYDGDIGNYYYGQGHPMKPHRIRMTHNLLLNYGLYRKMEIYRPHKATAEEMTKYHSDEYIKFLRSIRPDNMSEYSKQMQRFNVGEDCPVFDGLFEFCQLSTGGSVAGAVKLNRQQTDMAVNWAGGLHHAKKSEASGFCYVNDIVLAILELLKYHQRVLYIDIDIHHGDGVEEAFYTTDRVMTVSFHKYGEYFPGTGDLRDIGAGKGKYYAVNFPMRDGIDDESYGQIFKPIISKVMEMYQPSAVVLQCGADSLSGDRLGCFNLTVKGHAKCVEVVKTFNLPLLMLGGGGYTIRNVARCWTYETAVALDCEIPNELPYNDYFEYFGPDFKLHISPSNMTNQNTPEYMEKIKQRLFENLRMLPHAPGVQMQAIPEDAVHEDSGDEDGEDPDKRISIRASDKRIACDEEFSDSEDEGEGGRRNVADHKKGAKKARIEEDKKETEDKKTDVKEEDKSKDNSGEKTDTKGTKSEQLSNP
Outcome measure: pIC50
Note on units: pIC50 is unitless, being -log10 of a concentration expressed in mol/L.

Entry Nc1ccc(-c2cccs2)cc1NC(=O)c1ccc2nc(N3CCNCC3)ccc2c1 — recorded pIC50 = 7.38

---

# Test protocol: pharmacokinetics of Compound 001 in rats
# Format: in vivo
# Condition context: rat, plasma; low dose (10 mg/kg once daily oral gavage, 6 days); read-out: minimum drug exposure for the entire dosing period
Outcome measure: concentration at 6 days

The compound listed as Nc1ccc(-c2cccs2)cc1NC(=O)c1ccc2nc(N3CCNCC3)ccc2c1 has a reported concentration at 6 days of ≥ 1000 nM

Ref: patent US20160137630A1
